molecular target: human NK3 receptor (Homo sapiens); construct: expressed in transfected cells; membranes prepared; test: NK3 receptor binding assay; settings: filter-based competition binding vs ~0.05 nM 3H-AE93103, membranes of BHK cells expressing human NK3; Ki by Cheng Prusoff; read-out: Affinity (Ki/nM)
Sequence (P29371 whole entry): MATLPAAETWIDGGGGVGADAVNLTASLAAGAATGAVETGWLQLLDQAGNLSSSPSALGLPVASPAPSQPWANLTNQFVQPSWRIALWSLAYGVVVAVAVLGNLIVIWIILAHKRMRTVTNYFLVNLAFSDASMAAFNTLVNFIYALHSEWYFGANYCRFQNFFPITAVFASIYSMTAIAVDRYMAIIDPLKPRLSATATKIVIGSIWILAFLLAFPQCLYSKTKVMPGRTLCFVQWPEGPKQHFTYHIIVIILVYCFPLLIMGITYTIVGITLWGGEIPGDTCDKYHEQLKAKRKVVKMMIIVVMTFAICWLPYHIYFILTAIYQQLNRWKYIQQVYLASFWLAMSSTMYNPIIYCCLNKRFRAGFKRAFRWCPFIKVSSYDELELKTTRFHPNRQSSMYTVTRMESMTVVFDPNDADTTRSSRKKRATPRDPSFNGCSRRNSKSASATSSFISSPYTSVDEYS
Recorded measurements of Ki, one per entry
measurement-kind: Ki (nM)

[[record]]
molecule = "CCNn1c(C)c(C(=O)N[C@H](c2cccc(F)c2)C2CCC2)c2ccncc2c1=O"
measured_on = "human NK3 receptor (Homo sapiens)"
measurement_kind = "Ki"
measure_unit = "nM"
reported = 110

[[record]]
molecule = "CCCNn1c(C)c(C(=O)N[C@@H](CC)c2ccccc2)c2cnccc2c1=O"
measured_on = "human NK3 receptor (Homo sapiens)"
measurement_kind = "Ki"
measure_unit = "nM"
reported = 430

[[record]]
molecule = "CCNn1c(C)c(C(=O)N[C@H](c2cccc(F)c2)C2CCC2)c2ncccc2c1=O"
measured_on = "human NK3 receptor (Homo sapiens)"
measurement_kind = "Ki"
measure_unit = "nM"
reported = 91

[[record]]
molecule = "CCCNn1c(C)c(C(=O)N[C@H](c2cccc(F)c2)C2CCC2)c2cnccc2c1=O"
measured_on = "human NK3 receptor (Homo sapiens)"
measurement_kind = "Ki"
measure_unit = "nM"
reported = 33

[[record]]
molecule = "CCNn1c(C)c(C(=O)N[C@H](c2cccc(F)c2)C2CCC2)c2cnccc2c1=O"
measured_on = "human NK3 receptor (Homo sapiens)"
measurement_kind = "Ki"
measure_unit = "nM"
reported = 58

[[record]]
molecule = "CCCNn1c(C)c(C(=O)NC(c2ccccc2F)C2CCC2)c2cnccc2c1=O (centres unmarked)"
measured_on = "human NK3 receptor (Homo sapiens)"
measurement_kind = "Ki"
measure_unit = "nM"
reported = 160

[[record]]
molecule = "CCCNn1c(C)c(C(=O)N[C@H](c2ccc(F)cc2)C2CC2)c2cnccc2c1=O"
measured_on = "human NK3 receptor (Homo sapiens)"
measurement_kind = "Ki"
measure_unit = "nM"
reported = 720

[[record]]
molecule = "CCCNn1c(C)c(C(=O)N[C@H](c2cccc(Cl)c2)C2CC2)c2cnccc2c1=O"
measured_on = "human NK3 receptor (Homo sapiens)"
measurement_kind = "Ki"
measure_unit = "nM"
reported = 540

